Hello, the source for this data is the RNAGym collection of RNA variant scans (doi:10.1073/pnas.2313332121), in case you need it.

B1: TPR t1 (parent)
chain: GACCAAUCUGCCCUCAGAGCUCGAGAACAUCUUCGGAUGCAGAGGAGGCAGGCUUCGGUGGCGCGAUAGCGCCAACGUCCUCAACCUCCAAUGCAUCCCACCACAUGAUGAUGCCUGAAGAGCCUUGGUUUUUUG

Variants of: B1
Experiment: polymerase ribozyme fitness, log enrichment relative to wild type (log ratio); higher = more active; in vitro selection for triplet polymerase activity
Label scheme for polymerase ribozyme fitness (log ratio): lower than -2 is F, -2 and above is T.

GACCAAUCUGCCCUGAGAGCUCGAGAACAUCUUCGGAUGCAGAGGAGGCAGGCUUCGGUGGCGCGAUAGCGCCAACGUCCUCAACCUCCAAUGCAUCCCACCACAUGAUGAUGCCUGAAGAGCCUUGGUUUCUUG    F
GACCAAUCUGCCCUCAGAGCUCGAGAACAUCUUCGGAUGCAGAGGAGGCAGCCUUGGGUGGCGCGAUAGCUCCAACGUCCUCAACCUCCAAUGCAUCCCACCACAUGAUGAUGCCUGAAGAGCCUUGGUUUUUUG    F
GUCCCAUCUGCCUUCAGAGCUCGAGAACAUCUUCGGAUGCAGAGGAGACAGGCUUCGGUGGCGCGAUAACGCCAACGUCCUCAACCUCCAAUGCAUCCCACCACAUGAUGAUGCCUGAAGAGCCUUGGUUUUUUG    F
GACCAAUCUGCCCUCAGAGCUCGAGAACAACUUCGGAUGCAGAGGAGGCAGGCUUCGGUGACGCGAUAGCGCCAACGUCCUCAACCUUCAAUGCAUCCCACCACAUGAUGAUGCCUGAAGAGCCUUGGUUUUUUG    F

Problem: Does the reported polymerase ribozyme fitness (log ratio) for `GACCAAUCUGCCCUCAGAGCUCGAGAGCAUCUUCGGAUGCAGAGGAGGCAGGCUUCGGUGCCGCGAUAGCGCCAACGUCCUCAACCUGCAAUGCAUCCCACCACAUGAUGAUGCCUGAAGAGCCUUGAUUUUUUG` fall at or above the -2 mark?
Solution: F

Problem: Record `GACCAAUCUGCCCUCAGAGCUCGAGAACAUCUUCGGAUGCAGAGGAGGCAGGCUACGGUGGCGCGAUAGCGCCAACGUCAUCAACGUCCAAUGCAUCCCACCACAUGAUGAUGCCUGAAGAGCGUUGGUUUUUUG` ; criterion: polymerase ribozyme fitness (log ratio) no lower than -2. Met?
Solution: F

Problem: Is it the case that `GACCAAUCUGCCCUCAGAGCUCGAGAACAUCUUCGGAUGCAGAGGAGGCAGGCUUAGGUGGCCCGAUAGCGCCAACGUCCUCAACCUCCAAUGCAUCCCACCACAUGAUGAUGCCUGAAGAGCCUUGGUUUUUUG` has polymerase ribozyme fitness (log ratio) reaching or exceeding -2?
Solution: F
